Provide the recorded composite z-score for the entries that follow.
Test system: Neuregulin-1 EGF-like domain
Assay: binders of neuregulin-1 EGF-like domain, primary screen, biochemical, small-molecule microarray, 635 nm fluorescence (AID 1081);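 further: binding of the protein to compounds printed on small-molecule microarray slides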
Conditions: small-molecule microarray binding, higher = more signal
One number for each entry.

Please review the entries below; each comes with its answer.
CC[C@@H](c1ccccc1)n1c(=O)n2n(c1=O)[C@H]1[C@H](O)[C@@H]3O[C@@H]3C(=NOCC=C(C)CCC=C(C)C)[C@H]1CC2 = 0.89
CCOC(=O)NN=C1C[C@@H](O)[C@@H](O)[C@@H]2[C@@H]3C(=O)N(C[C@@H]4CCCO4)C(=O)[C@@H]3CC[C@@H]12 = 0.69
CCOC(=O)NN=C1C[C@@H](O)[C@@H](O)[C@@H]2[C@@H]3C(=O)N(C4CCCCC4)C(=O)[C@@H]3CC[C@@H]12 = -0.424
CO[C@@H]1COC(=O)CC=C[C@@H](C)COC(=O)[C@H](COCc2ccccc2)NC(=O)CC=C[C@H]1C = -0.0535

// each compound listed below needs its composite z-score
1. CO[C@@H]1COC(=O)[C@H](C)NC(=O)[C@@H](C)COC(=O)CCC[C@H]1C
2. CC1CC/C=C\[C@H]2OC34C=CCN(C(C)C)C(=O)[C@H]3N(CCCO)C(=O)[C@@H]4C2C(=O)O1 (some centres not stated)
3. O=C1C[C@@H](O)[C@@H](O)[C@@H]2[C@@H]3C(=O)N(c4cccc(Oc5ccccc5)c4)C(=O)[C@@H]3CC[C@@H]12

# output
[1.13, 0.866, 1.01]
